system: EPHA4; conditions: concentration: 1 μM, replicates: in singlicate; n = 1;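 further: KINOMEscan kinase panel screen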
recorded endpoint: %Inh (%)
The figure you give is taken to be in %; do not add the unit.

Examples with answers:
{"compound": "Cc1csc(-c2nc(Nc3ccncc3)c3ccccc3n2)n1 [GW869640]", "recorded endpoint": "%Inh", "measured value": 8}
{"compound": "Cc1cccc(-c2nc(C)cc(Nc3ccncc3)n2)n1 [GSK257997]", "recorded endpoint": "%Inh", "measured value": 2}
{"compound": "O=C1NC(=O)C(N2CCc3ccccc32)=C1c1ccccc1Cl [SB-373598]", "recorded endpoint": "%Inh", "measured value": 24}
{"compound": "Cc1cc(NCC(c2ccccc2)c2ccccc2)nc(NCc2ccc(C(F)(F)F)cc2)n1 [GW497681]", "recorded endpoint": "%Inh", "measured value": 0}

Value wanted: %Inh (EPHA4) of entry Cl.c1ccc(-c2n[nH]cc2-c2ccnc(-c3ccc(CN4CCOCC4)cc3)c2)nc1 [GW776245]
16

Value wanted: %Inh (EPHA4) of entry COc1ccc(C2=C(Nc3cccc(C(=O)O)c3)C(=O)NC2=O)cc1 [SB-390765]
21

Value wanted: %Inh (EPHA4) of entry COc1ccc(CNC(=O)NC2CCN(c3ccnc(Nc4cc(OC)c(OC)c(OC)c4)n3)C2)cc1 (stereo not drawn) [GSK1379748]
3

Value wanted: %Inh (EPHA4) of entry COc1cc(Nc2nccc(N3CCC(NC(=O)Nc4cc(C)ccc4C)C3)n2)cc(OC)c1OC (stereo not drawn) [GSK1379762]
26

Value wanted: %Inh (EPHA4) of entry Cc1cccc(-c2nc(Nc3ccc4[nH]ncc4c3)c3ccccc3n2)n1 [GW857175]
0

###

Recorded %Inh values for a group of compounds are listed next.
tested on: NEK11; conditions: concentration: 1 μM, replicates: in singlicate; n = 1
The figure you give is taken to be in %; do not add the unit.

Examples with answers:
{"input smiles": "CCn1c(-c2ccccn2)nc2cnccc21", "unit spec": "%", "%Inh": 39}
{"input smiles": "CC(C)(C)c1ccc(C(=O)Nc2cn3cc(-c4cccnc4)ccc3n2)cc1", "unit spec": "%", "%Inh": 0}
{"input smiles": "COc1cc2ncnc(Nc3ccc4nc(-c5ccccc5)[nH]c4c3)c2cc1OC.Cl", "unit spec": "%", "%Inh": 2}
{"input smiles": "Cc1cccc(-c2cc(Nc3ccncc3)c3ccccc3n2)n1", "unit spec": "%", "%Inh": 0}

Turning now to a further compound:
Can you share its %Inh? I mean this compound: COc1cc2nccc(Nc3ccc(NC(=O)c4ccc(C)cc4)c(O)c3)c2cc1OC.Cl
0

###

system: PIP5K1A; settings: concentration: 1 μM, replicates: in singlicate; n = 1
recorded endpoint: %Inh
Answer as a quantity: numeral, then unit.

{"compound": "COC(=O)c1c(-c2ccccc2)c2cc(OC)ccc2c(=O)n1Cc1ccccc1", "%Inh": "16%"}
{"compound": "Nc1nc(-c2nccs2)c(-c2ccnc3ccccc23)s1 [GW693542]", "%Inh": "0%"}
{"compound": "CC(C)(C)c1ccc(C(=O)Nc2cn3cc(-c4cccnc4)ccc3n2)cc1", "%Inh": "0%"}
{"compound": "Nc1ncnc2[nH]c(-c3ccccc3)nc12 [AH5015]", "%Inh": "0%"}
{"compound": "COC(=O)c1c(-c2ccccc2)c2cc(C(=O)O)ccc2c(=O)n1Cc1ccccc1", "%Inh": "18%"}
{"compound": "COc1ccc(Nc2nccc(NCCNC(=O)Nc3ccccc3F)n2)cc1 [GSK1379901]", "%Inh": "35%"}
{"compound": "Cc1cc(-c2ccc3c(c2)CC[C@@H](N[C@@H](C)c2ccccc2)C3)cnc1N.Cl [GW412617]", "%Inh": "0%"}
{"compound": "Cc1csc(-c2nc(Nc3ccncc3)c3ccccc3n2)n1 [GW869640]", "%Inh": "0%"}

Can you share its %Inh? I mean this compound: Cc1cccc(-c2nc(C)cc(Nc3ccncc3)n2)n1 [GSK257997]
0%
